# system.under.test: hMAO-B (Homo sapiens, UniProt P27338)
# assay.name: hMAO inhibition assay (Amplex Red fluorescence), hMAO-B, benzylamine substrate
# Format: biochemical
# condition: recombinant hMAO-B; read-out: hMAO-B IC50
measured.attribute: IC50 (nM)

Example cases with answers are listed next.
>>> print(df.to_string())
                        compound_structure  value_measured
0   COc1cccc(C(=O)/C=C/c2ccc3c(c2)OCCO3)c1             340
1  O=C(/C=C/c1ccc2c(c1)OCCO2)c1cc(Br)ccc1O             250

A: O=C(/C=C/c1ccc2c(c1)OCCO2)c1cc(Cl)ccc1O
B: O=C(/C=C/c1ccc2c(c1)OCCO2)c1cccc(Br)c1
C: O=C(/C=C/c1ccc2c(c1)OCCO2)c1cccc(O)c1
D: O=C(C=Cc1ccccc1)c1ccccc1
Enquiry: Put these in order: smallest IC50 first, largest last. Form entry: labels listed in requested order.
Return: B, C, A, D
(B: 55 nM, C: 150 nM, A: 320 nM, D: 13000 nM)

P: O=C(/C=C/c1ccc2c(c1)OCCO2)c1ccccc1Cl
Q: O=C(/C=C/c1ccc2c(c1)OCO2)c1cccc(Br)c1
Enquiry: Just tell me: smaller IC50 value, P or Q ? Selection: enter the item's label.
Return: P
(P: 54 nM, Q: 280 nM)

====

# system.under.test: hMAO-B (Homo sapiens, UniProt P27338)
# assay.name: hMAO inhibition assay (Amplex Red fluorescence), hMAO-B, benzylamine substrate
# Type: biochemical
# condition: tested concentration 1 µM
measured.attribute: inhibition at 1 µM (%)

Sample records with inhibition at 1 µM:
                                   molecule  value_measured
0  O=C(/C=C/c1ccc2c(c1)OCCO2)c1ccc(C(F)(F)F)cc1 [Compound 21]            76.8
1  COc1ccc(C(=O)/C=C/c2ccc3c(c2)OCCO3)cc1OC [Compound 11]            22.4
2  O=C(/C=C/c1ccc2c(c1)OCCO2)c1cccc(Br)c1 [Compound 16]            93.3

A: COc1cccc(C(=O)/C=C/c2ccc3c(c2)OCCO3)c1 [Compound 6]
B: COc1ccc(C(=O)/C=C/c2ccc3c(c2)OCCO3)cc1 [Compound 8]
Enquiry: Between these two entries, A and B , state which has the higher inhibition at 1 µM. Write the label of whichever entry you select.
Return: A

A: O=C(/C=C/c1ccc2c(c1)OCCO2)c1ccccc1F [Compound 12]
B: O=C(/C=C/c1ccc2c(c1)OCCO2)c1ccc(O)cc1 [Compound 7]
C: O=C(/C=C/c1ccc2c(c1)OCO2)c1ccc(Cl)cc1 [Compound 28]
Enquiry: Please list these molecules in decreasing order of inhibition at 1 µM. Return the labels ranked in the requested order, please.
Return: A, C, B
(A: 89.2%, C: 57.5%, B: 26%)

====

# system.under.test: hMAO-B (Homo sapiens)
# assay.name: hMAO inhibition assay (Amplex Red fluorescence), hMAO-B, benzylamine substrate
# Format: biochemical
# condition: recombinant hMAO-B; read-out: hMAO-B IC50
measured.attribute: IC50 (nM)

In [3]: df
Out[3]:
                       compound_structure  measured_attribute  unit_symbol  value_measured
0     O=C(/C=C/c1ccc2c(c1)OCCO2)c1ccccc1O                IC50           nM             300
1   O=C(/C=C/c1ccc2c(c1)OCCO2)c1cccc(F)c1                IC50           nM             130
2  O=C(/C=C/c1ccc2c(c1)OCCO2)c1cccc(Cl)c1                IC50           nM              57

I: O=C(/C=C/c1ccc2c(c1)OCCO2)c1ccccc1F
II: O=C(/C=C/c1ccc2c(c1)OCCO2)c1ccc(F)cc1
Enquiry: Look at I and II . Which one has the lower recorded IC50 number? Your answer should be the label attached to the chosen record.
Return: II
(II: 68 nM, I: 120 nM)

====

# system.under.test: hMAO-B (Homo sapiens, UniProt P27338)
# assay.name: hMAO inhibition assay (Amplex Red fluorescence), hMAO-B, benzylamine substrate
# Type: biochemical
# condition: tested concentration 1 µM
measured.attribute: inhibition at 1 µM (%)

>>> print(df.to_string())
                                   compound  unit_symbol  value_measured
0  O=C(/C=C/c1ccc2c(c1)OCCO2)c1ccccc1O [Compound 5]            %              75
1  O=C(/C=C/c1ccc2c(c1)OCCO2)c1ccccc1Br [Compound 14]            %            92.6

1: O=C(/C=C/c1ccc2c(c1)OCCO2)c1ccc(Br)cc1 [Compound 19]
2: O=C(/C=C/c1ccc2ccccc2c1)c1ccccc1 [Compound 2]
Enquiry: Between 1 and 2 , which one has the lower reported inhibition at 1 µM value? // output: label of the selected item
Return: 2

P: O=C(/C=C/c1ccc2c(c1)OCCO2)c1cccc(O)c1 [Compound 9]
Q: O=C(/C=C/c1ccc2c(c1)OCO2)c1ccccc1 [Compound 3]
Enquiry: Which record would sort first by descending inhibition at 1 µM, P or Q ? Bench note: the answer is the label of the chosen record.
Return: P
(P: 86.3%, Q: 50.8%)

====

# system.under.test: hMAO-B (Homo sapiens)
# assay.name: hMAO inhibition assay (Amplex Red fluorescence), hMAO-B, benzylamine substrate
# Type: biochemical
# condition: from IC50, versus compound 4
measured.attribute: fold higher inhibitory potency than 4

In [3]: df
Out[3]:
                       compound_structure      system_under_test  value_measured
0    O=C(/C=C/c1ccc2c(c1)OCCO2)c1ccccc1Br  hMAO-B (Homo sapiens)    1.8–4.1 fold
1  O=C(/C=C/c1ccc2c(c1)OCCO2)c1cccc(Br)c1  hMAO-B (Homo sapiens)      1.7–4 fold
2     O=C(/C=C/c1ccc2c(c1)OCCO2)c1ccccc1F  hMAO-B (Homo sapiens)    1.8–4.1 fold

Enquiry: Can you share its fold higher inhibitory potency than 4? I mean this compound: O=C(/C=C/c1ccc2c(c1)OCCO2)c1cccc(Cl)c1
Return: 1.7–4 fold

Enquiry: Another compound to look at: O=C(/C=C/c1ccc2c(c1)OCCO2)c1cccc(F)c1
Return: 1.7–4 fold

Enquiry: Same thing, different compound: O=C(/C=C/c1ccc2c(c1)OCCO2)c1ccccc1Cl
Return: 1.8–4.1 fold

====

measured.attribute: melting point

These solved cases illustrate the format of a correct answer.
>>> df
                                   molecule  measured_attribute     value_measured
0  O=C(/C=C/c1ccc2c(c1)OCCO2)c1cc(Br)ccc1O [Compound 24]       melting point  141.8 to 143.7 °C
1  COc1ccc(C(=O)/C=C/c2ccc3c(c2)OCCO3)cc1OC [Compound 11]       melting point    110 to 111.1 °C
2  COc1cccc(C(=O)/C=C/c2ccc3c(c2)OCCO3)c1 [Compound 6]       melting point    94.4 to 95.6 °C
3  O=C(/C=C/c1ccc2c(c1)OCCO2)c1ccc(Br)cc1 [Compound 19]       melting point  136.7 to 138.2 °C
4  O=C(/C=C/c1ccc2c(c1)OCCO2)c1ccccc1O [Compound 5]       melting point  120.8 to 122.3 °C
5  O=C(/C=C/c1ccc2c(c1)OCCO2)c1ccc(Cl)c(Cl)c1 [Compound 23]       melting point  156.6 to 157.9 °C

Enquiry: So what's the measured melting point for this one? O=C(/C=C/c1ccc2c(c1)OCCO2)c1ccc(Cl)cc1O [Compound 26]
Return: 155.7 to 156.1 °C

Enquiry: Query O=C(/C=C/c1ccc2c(c1)OCCO2)c1cccc(Cl)c1 [Compound 17] next
Return: 125.5 to 127 °C

Enquiry: Moving on to the next molecule: O=C(/C=C/c1ccc2c(c1)OCCO2)c1ccccc1Cl [Compound 13]
Return: 67.5 to 69.4 °C

Enquiry: Follow-up item: O=C(/C=C/c1ccc2c(c1)OCCO2)c1ccc(F)cc1 [Compound 20]
Return: 135.5 to 136.5 °C

====

Form field: Selectivity Index (SI) (one value per entry).
# system.under.test: hMAO-B (Homo sapiens)
# Sequence (P27338 1-520): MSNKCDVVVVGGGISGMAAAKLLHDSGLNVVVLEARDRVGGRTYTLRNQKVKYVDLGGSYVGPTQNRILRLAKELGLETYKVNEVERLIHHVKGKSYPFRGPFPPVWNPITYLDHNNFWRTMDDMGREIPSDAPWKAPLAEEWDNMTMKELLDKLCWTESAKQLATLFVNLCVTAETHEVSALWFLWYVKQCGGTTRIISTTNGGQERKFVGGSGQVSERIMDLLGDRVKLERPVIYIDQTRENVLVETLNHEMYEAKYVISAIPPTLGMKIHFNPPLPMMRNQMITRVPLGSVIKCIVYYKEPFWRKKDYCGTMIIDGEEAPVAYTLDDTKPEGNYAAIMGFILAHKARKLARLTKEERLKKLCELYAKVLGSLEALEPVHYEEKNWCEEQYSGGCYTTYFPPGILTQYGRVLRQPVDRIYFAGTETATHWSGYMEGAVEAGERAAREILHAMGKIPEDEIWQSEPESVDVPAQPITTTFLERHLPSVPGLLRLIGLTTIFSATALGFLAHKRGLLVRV
# assay.name: hMAO inhibition assay (Amplex Red fluorescence), hMAO-B, benzylamine substrate
# Assay type: biochemical
# condition: SI = IC50 (hMAO-A)/IC50 (hMAO-B)

Enquiry: Query Selectivity Index (SI) on hMAO-B (Homo sapiens) for O=C(/C=C/c1ccc2c(c1)OCCO2)c1ccc(C(F)(F)F)cc1 [Compound 21]
Return: >174

Enquiry: And the next one, O=C(/C=C/c1ccc2c(c1)OCO2)c1cccc(Br)c1 [Compound 27] ?
Return: >143

Enquiry: Now consider O=C(/C=C/c1ccc2c(c1)OCCO2)c1ccccc1Cl [Compound 13] and answer again.
Return: >741

Enquiry: Then O=C(/C=C/c1ccc2c(c1)OCCO2)c1ccccc1O [Compound 5] ?
Return: >133

Enquiry: What do you get for O=C(/C=C/c1ccc2c(c1)OCCO2)c1ccccc1F [Compound 12] ?
Return: >333

Enquiry: Same again, this time with O=C(/C=C/c1ccc2c(c1)OCCO2)c1ccccc1 [Compound 4]
Return: >186
